System: PSN1 (Pancreatic Carcinoma)
Test: combination Emax (second highest fraction inhibited in the dose matrix, 72 h); higher = more inhibition; extreme values may be limits of the assay
Binary call on combination Emax: Condition met from 0.4 upward, Condition not met beneath that.

Compound	Qualitative label
CN(C)CCCOc1ccc(-c2ccc3ncc4c(c3c2)n(C2CCOCC2)c(=O)n4C)cn1 [AZD0156] + C=CCn1c(=O)c2cnc(Nc3ccc(N4CCN(C)CC4)cc3)nc2n1-c1cccc(C(C)(C)O)n1 [AZD1775] (first compound max 1 µM, partner max 1 µM)	Condition met
CC1(C)CCC(CN2CCN(c3ccc(C(=O)NS(=O)(=O)c4ccc(NCC5CCOCC5)c([N+](=O)[O-])c4)c(Oc4cnc5[nH]ccc5c4)c3)CC2)=C(c2ccc(Cl)cc2)C1 [Venetoclax] + CS(=O)(=O)CCNCc1ccc(-c2ccc3ncnc(Nc4ccc(OCc5cccc(F)c5)c(Cl)c4)c3c2)o1 [Lapatinib] (first compound max 1 µM, 7x7, partner max 10 µM)	Condition not met
CC(=O)c1c(C)c2cnc(Nc3ccc(N4CCNCC4)cn3)nc2n(C2CCCC2)c1=O [Palbociclib] + CC1(C)CCC(CN2CCN(c3ccc(C(=O)NS(=O)(=O)c4ccc(NCC5CCOCC5)c([N+](=O)[O-])c4)c(Oc4cnc5[nH]ccc5c4)c3)CC2)=C(c2ccc(Cl)cc2)C1 [Venetoclax] (first compound max 10 µM, 7x7, partner max 1 µM)	Condition met
NC1(C(=O)N[C@@H](CCO)c2ccc(Cl)cc2)CCN(c2ncnc3[nH]ccc23)CC1 [Capivasertib] + CCN(CCO)CCCOc1ccc2c(Nc3cc(CC(=O)Nc4cccc(F)c4)[nH]n3)ncnc2c1 [AZD2811] (first compound max 10 µM, 7x7, partner max 1 µM)	Condition not met
C[C@@H](Oc1cc(-c2cnn(C3CCNCC3)c2)cnc1N)c1c(Cl)ccc(F)c1Cl [Crizotinib] + CC1=C(C(=CC=C1)Cl)NC(=O)C2=CN=C(S2)NC3=CC(=NC(=N3)C)N4CCN(CC4)CCO [Dasatinib] (first compound max 10 µM, 7x7, partner max 2 µM)	Condition met

input: Check if combination Emax >= 0.4 (inclusive). Item: CC(=O)c1c(C)c2cnc(Nc3ccc(N4CCNCC4)cn3)nc2n(C2CCCC2)c1=O [Palbociclib] + Cc1c2c(nn1C)CSCc1cc(n(C)n1)CSc1cc(c3ccccc3c1)OCCCc1c(C(=O)O)n(C)c3c-2c(Cl)ccc13 [AZD5991] (first compound max 10 µM, 7x7, partner max 1 µM)
output: Condition met

input: Would you kindly repeat that for COc1cccc(OCCCN)c1-c1cc(Nc2cnc(C#N)cn2)n[nH]1 [Prexasertib] + Cc1cc2ncnn2cc1Nc1ncc2c(n1)n(C1CCOCC1)c(=O)n2C [AZD7648] (first compound max 1 µM, 7x7, partner max 10 µM) ?
output: Condition met

input: What about CN(CCO)CC[C@H](CSc1ccccc1)Nc1ccc(S(=O)(=O)NC(=O)c2ccc(N3CCC([C@@H](O)c4ccccc4-c4ccc(Cl)cc4)CC3)cc2)cc1S(=O)(=O)C(F)(F)F [AZD4320] + CS(=O)(=O)CCNCc1ccc(-c2ccc3ncnc(Nc4ccc(OCc5cccc(F)c5)c(Cl)c4)c3c2)o1 [Lapatinib] (first compound max 1 µM, 7x7, partner max 10 µM) ?
output: Condition not met

input: Now the compound CN(C)CCCOc1ccc(-c2ccc3ncc4c(c3c2)n(C2CCOCC2)c(=O)n4C)cn1 [AZD0156] + O=C(c1cc(Cc2n[nH]c(=O)c3ccccc23)ccc1F)N1CCN(C(=O)C2CC2)CC1 [Olaparib] (first compound max 3 µM, partner max 3 µM)
output: Condition not met

input: Moving on to the next compound: CC1(C)CCC(CN2CCN(c3ccc(C(=O)NS(=O)(=O)c4ccc(NCC5CCOCC5)c([N+](=O)[O-])c4)c(Oc4cnc5[nH]ccc5c4)c3)CC2)=C(c2ccc(Cl)cc2)C1 [Venetoclax] + Cn1cnc2c(F)c(Nc3ccc(Br)cc3Cl)c(C(=O)NOCCO)cc21 [Selumetinib] (first compound max 1 µM, 7x7, partner max 3 µM)
output: Condition met

input: And the next one, COc1nnc2ccc(N3CCC(c4ccc(OCCN5CCN(C)C(=O)[C@H]5C)cc4)CC3)nn12 [AZD5153] + CCN(CCO)CCCOc1ccc2c(Nc3cc(CC(=O)Nc4cccc(F)c4)[nH]n3)ncnc2c1 [AZD2811] (first compound max 1 µM, 7x7, partner max 1 µM) ?
output: Condition met

====

Tested on: SK-PN-DW (Other Solid Carcinomas)
Assay: combination Emax (second highest fraction inhibited in the dose matrix, 72 h); higher = more inhibition; extreme values may be limits of the assay
This listing pairs molecules with measured combination Emax.
Please state the value as a number alone, without comment.

Molecule	combination Emax
Cn1cnc2c(F)c(Nc3ccc(Br)cc3Cl)c(C(=O)NOCCO)cc21 [Selumetinib] + CC(C)n1c(=O)n(C)c2cnc3cc(F)c(-c4ccc(OCCCN5CCCCC5)nc4)cc3c21 [AZD1390] (first compound max 10 µM, 7x7, partner max 0.3 µM)	0.139

Here's the next entry for you.
input: Reported combination Emax for COc1nnc2ccc(N3CCC(c4ccc(OCCN5CCN(C)C(=O)[C@H]5C)cc4)CC3)nn12 [AZD5153] + Cn1cnc2c(F)c(Nc3ccc(Br)cc3Cl)c(C(=O)NOCCO)cc21 [Selumetinib] (first compound max 1 µM, 7x7, partner max 10 µM) : what is it?
output: 0.559

====

Test system: LN-229 (Glioblastoma)
Experiment: combination Emax (second highest fraction inhibited in the dose matrix, 72 h); higher = more inhibition; extreme values may be limits of the assay
Readout label: combination Emax

Compound	combination Emax
COc1nnc2ccc(N3CCC(c4ccc(OCCN5CCN(C)C(=O)[C@H]5C)cc4)CC3)nn12 [AZD5153] + C=CCn1c(=O)c2cnc(Nc3ccc(N4CCN(C)CC4)cc3)nc2n1-c1cccc(C(C)(C)O)n1 [AZD1775] (first compound max 1 µM, partner max 1 µM)	0.431

input: Which combination Emax is reported with LN-229 (Glioblastoma) for this entry: Cc1cc2ncnn2cc1Nc1ncc2c(n1)n(C1CCOCC1)c(=O)n2C [AZD7648] + C[C@@H]1COCCN1C2=NC(=NC(=C2)C3(CC3)[S@](=N)(=O)C)C4=C5C=CNC5=NC=C4 [AZD6738] (first compound max 10 µM, 7x7, partner max 10 µM) ?
output: 0.525

====

Property: Bliss excess; scope: individual compounds
Test system: CAL-62 (Thyroid Gland Carcinoma);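 note: after 72 h of two-drug dosing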
Assay: Bliss excess, mean over the matrix (fraction); higher = more synergy
Answer with the value's number alone.

See these solved cases before continuing.
Compound	Bliss excess
Cn1cnc2c(F)c(Nc3ccc(Br)cc3Cl)c(C(=O)NOCCO)cc21 [Selumetinib] + C[C@@H]1COCCN1C2=NC(=NC(=C2)C3(CC3)[S@](=N)(=O)C)C4=C5C=CNC5=NC=C4 [AZD6738] (first compound max 10 µM, 7x7, partner max 10 µM)	0.0142
COc1cc2ncnc(Nc3ccc(F)c(Cl)c3)c2cc1OCCCN1CCOCC1 [Gefitinib] + CC(C)n1c(=O)n(C)c2cnc3cc(F)c(-c4ccc(OCCCN5CCCCC5)nc4)cc3c21 [AZD1390] (first compound max 10 µM, 7x7, partner max 0.3 µM)	-0.0451
Cc1c2c(nn1C)CSCc1cc(n(C)n1)CSc1cc(c3ccccc3c1)OCCCc1c(C(=O)O)n(C)c3c-2c(Cl)ccc13 [AZD5991] + CS(=O)(=O)CCNCc1ccc(-c2ccc3ncnc(Nc4ccc(OCc5cccc(F)c5)c(Cl)c4)c3c2)o1 [Lapatinib] (first compound max 1 µM, 7x7, partner max 10 µM)	-0.0118

Next compound, please.
input: Report Bliss excess for CN(C)CCCOc1ccc(-c2ccc3ncc4c(c3c2)n(C2CCOCC2)c(=O)n4C)cn1 [AZD0156] + C[C@@H]1COCCN1C2=NC(=NC(=C2)C3(CC3)[S@](=N)(=O)C)C4=C5C=CNC5=NC=C4 [AZD6738] (first compound max 1 µM, 7x7, partner max 10 µM) tested on CAL-62 (Thyroid Gland Carcinoma).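 Note: after 72 h of two-drug dosing.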
output: -0.0221

====

Tested on: CAL-62 (Thyroid Gland Carcinoma);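 note: after 72 h of two-drug dosing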
Assay: Bliss excess, mean over the matrix (fraction); higher = more synergy
Listed below: Bliss excess values for each entry.
Provide a numeric answer; units are not to be included.

Compound	Target system	Bliss excess
O=C(c1cc(Cc2n[nH]c(=O)c3ccccc23)ccc1F)N1CCN(C(=O)C2CC2)CC1 [Olaparib] + CN(CC[C@H](CSC1=CC=CC=C1)NC2=C(C=C(C=C2)S(=O)(=O)NC(=O)C3=CC=C(C=C3)N4CCC(CC4)[C@H](C5=CC=CC=C5C6=CC=C(C=C6)Cl)O)S(=O)(=O)C(F)(F)F)CCO [AZD4320] (first compound max 10 µM, 7x7, partner max 1 µM)	CAL-62 (Thyroid Gland Carcinoma)	-0.042

Consider the record given below.
input: What value of Bliss excess has been reported for the following compound? Cc1cc2ncnn2cc1Nc1ncc2c(n1)n(C1CCOCC1)c(=O)n2C [AZD7648] + CCN(CCO)CCCOc1ccc2c(Nc3cc(CC(=O)Nc4cccc(F)c4)[nH]n3)ncnc2c1 [AZD2811] (first compound max 10 µM, 7x7, partner max 1 µM)
output: 0.0427
